UniProt Q9NWZ3 IC50, compiled from various sources.
valueKind: IC50 (µM)

Example results:
CC(=O)N1CCC(c2cc(-c3cnc(-n4ncc5cc(C#N)cnc54)cc3NC(C)C)on2)CC1 : 0.002
CNc1cncc(-c2cc3c(N[C@H]4CC[C@H](N5CCOCC5)CC4)ncnc3cc2F)c1 : 0.023

[A] CCCn1cc(-c2cnc(-c3cnc4cc(C#N)cnn34)cc2Nc2cnn(CC(F)F)c2)cn1
[B] COc1nc2c(OC[C@H]3NC(=O)C(F)(F)[C@H]3C)csc2cc1C(N)=O
[C] CN(CC1CCN(C(=O)c2ccc(Cl)c(N3CCC(=O)NC3=O)c2)CC1)C[C@H]1CC[C@H](n2cc3cc(NC(=O)c4cccc(C(F)(F)F)n4)c(C(C)(C)O)cc3n2)CC1
Ask: List by increasing IC50. List the labels, following the order given in the request.
Result: B, C, A

---

IRAK4 (Homo sapiens (Human)) pIC50, compiled from various sources.
pIC50: −log10 of the molar value.
valueKind: pIC50

Example results:
COc1cc2nn([C@@H]3C[C@@H]4C[C@H]3CN4C)cc2cc1NC(=O)c1cccc(C(F)(F)F)n1 (relative stereo) : 8.70
CN(C)[C@H]1CC[C@H](Nc2ncnc3ccc(-c4cc(O)cc(F)c4)cc23)CC1 : 8.52

[A] CC(C)(O)[C@H](F)CNC(=O)c1cnc(Nc2ccc3ncsc3c2)cc1NC1C2CCCC21 (stereo partly shown)
[B] CN1CCC(Nc2ncc(-c3nc4ccccc4s3)c(N[C@@H]3C[C@H](CO)[C@@H](O)[C@H]3O)n2)CC1
Ask: Between these two entries, A and B , state which has the higher pIC50. Selection: enter the item's label.
Result: A
(A: 8.64, B: 5.58)

---

pIC50: −log10 of the molar value.
IRAK4 (Homo sapiens (Human)) pIC50, compiled from various sources.

CC(=O)Nc1cccc(-c2c[nH]c3ncccc23)c1 : ≥ 5.00
CCC[C@H](N)c1cccc(-c2cc(N3CCC(F)(F)CC3)c3cnn(-c4cccc(CO)n4)c3c2)n1 : > 7.00
CC(C)Nc1cc(-n2ncc3cc(C#N)cnc32)ncc1-c1cn(CCc2cccnc2)nn1 : 8.70
Cc1cccc(-n2ncc3c(CN)cc(-c4cccc(C(C)N)n4)cc32)n1 (centres unmarked) : 5.00 to 6.00
Cn1cc(-c2cccc(-c3ncc(-c4cnn(C)c4)c(N4CC[C@@H](NS(C)(=O)=O)C4)n3)c2)cn1 : 6.00 to 7.00
Cn1c(C2CCCCC2)nc2c3c(C4CCOCC4)c[nH]c3ncc21 : 6.00 to 7.00
CO[C@H]1CC[C@@H](Nc2nc(Nc3cc(C)ns3)nc3ccn(-c4cnn(C)c4)c23)CC1 : 6.00 to 7.00

Consider the additional molecule presented here.
Ask: Tell me reported pIC50 for O=C(Nc1cc2cn(C3CCOCC3)nc2cc1Cl)c1nc(C(F)(F)F)cs1 , tested with IRAK4 (Homo sapiens (Human)).
Result: 6.30

---

UniProt:Q9NWZ3 IC50, compiled from various sources.
valueKind: IC50 (nM)

[I] CC(C)NC(=O)N[C@H](C)CCNC(=O)c1cnc(Nc2ccc3ncsc3c2)cc1NC(C)C
[II] CC(C)Nc1cc(-n2ncc3cc(C#N)cnc32)ncc1-c1cn(C2CCN(C)C2=O)nn1 (stereo not shown)
Ask: When the recorded IC50 values are compared, which is smaller: that of I or that of II ? Selection: enter the item's label.
Result: I
(I: 1.7 nM, II: 4 nM)

[1] Cn1cc(NC(=O)c2ccc3ccc(N4CC5CCC4CN5)nn23)c(C(F)(F)F)n1 (stereo not shown)
[2] COc1nc2c(OC[C@@H]3C[C@@H](F)C(=O)N3)csc2cc1C(N)=O
Ask: Between these two entries, 1 and 2 , state which has the higher IC50. Selection: enter the item's label.
Result: 1
(1: 19 nM, 2: 4 nM)
